- target: T1, CGRP1 receptor (CRLR/RAMP1 complex) of human neuroblastoma SK-N-MC cells (human, UniProt Q16602 23-461; O60894 27-148)
- T1 construct: whole, on cells
- T1 sequence (Q16602 23-461, chain 1 of 2): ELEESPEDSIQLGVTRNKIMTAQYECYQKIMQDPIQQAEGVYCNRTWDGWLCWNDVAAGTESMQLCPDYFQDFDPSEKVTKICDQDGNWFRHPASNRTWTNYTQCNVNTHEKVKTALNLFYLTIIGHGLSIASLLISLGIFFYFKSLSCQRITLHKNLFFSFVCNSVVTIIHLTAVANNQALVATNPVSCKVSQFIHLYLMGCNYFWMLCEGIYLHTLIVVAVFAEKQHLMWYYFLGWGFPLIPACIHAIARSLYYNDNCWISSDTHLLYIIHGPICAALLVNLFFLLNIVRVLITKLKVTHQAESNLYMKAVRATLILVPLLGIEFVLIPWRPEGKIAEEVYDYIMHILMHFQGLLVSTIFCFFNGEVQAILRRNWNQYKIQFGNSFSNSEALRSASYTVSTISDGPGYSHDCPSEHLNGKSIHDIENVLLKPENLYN
- T1 sequence (O60894 27-148, chain 2 of 2): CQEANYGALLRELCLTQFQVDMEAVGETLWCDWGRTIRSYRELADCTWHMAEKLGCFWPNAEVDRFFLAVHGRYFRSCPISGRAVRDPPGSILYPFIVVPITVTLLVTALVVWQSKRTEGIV
- protocolSummary: 125I-hαCGRP competition, SK-N-MC membranes
pKi: −log10 of the molar value. Ends that are not written are not given here.
Please mark criterion met if the recorded pKi is equal to or greater than 9, and criterion not met if it falls below.

binder	cat
Ac-WVTHRLAGLLSRSGGVVKC(PEG 30 kDa)NFVPTDVGPFAF-NH2 [SEQ ID NO 232]	criterion met
CGGGGGGGVTHRLAGLLSRSGGVVKNNFVPTDVGPFAF-NH2 (not fully specified (residue 1)) [SEQ ID NO 692]	criterion not met
